# measured_on: sGC α1/β1 heterodimer (Homo sapiens, UniProt Q02108+Q02153)
# Construct: expressed in transfected cells; host or cells: CHO-K1 (clone #7, CHO-K1/sGC)
# Sequence (Q02108 whole entry): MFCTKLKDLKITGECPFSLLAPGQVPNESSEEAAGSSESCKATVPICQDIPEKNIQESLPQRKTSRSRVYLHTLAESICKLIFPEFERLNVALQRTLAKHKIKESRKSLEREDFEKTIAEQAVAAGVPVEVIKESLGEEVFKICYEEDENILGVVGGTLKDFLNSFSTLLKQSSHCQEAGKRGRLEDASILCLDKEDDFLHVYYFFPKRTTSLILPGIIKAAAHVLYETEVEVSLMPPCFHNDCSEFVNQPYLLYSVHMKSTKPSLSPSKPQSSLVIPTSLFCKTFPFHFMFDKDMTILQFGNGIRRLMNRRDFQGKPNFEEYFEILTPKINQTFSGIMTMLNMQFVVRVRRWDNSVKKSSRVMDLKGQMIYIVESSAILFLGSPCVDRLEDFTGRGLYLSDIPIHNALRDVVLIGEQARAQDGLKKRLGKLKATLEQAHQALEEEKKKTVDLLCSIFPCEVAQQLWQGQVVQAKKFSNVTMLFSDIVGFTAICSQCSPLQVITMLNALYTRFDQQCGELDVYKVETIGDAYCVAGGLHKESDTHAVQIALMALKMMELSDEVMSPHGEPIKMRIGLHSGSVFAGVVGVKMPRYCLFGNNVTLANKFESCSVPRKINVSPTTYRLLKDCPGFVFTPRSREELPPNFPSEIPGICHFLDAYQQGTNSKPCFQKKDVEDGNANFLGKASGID
# Sequence (Q02153 whole entry): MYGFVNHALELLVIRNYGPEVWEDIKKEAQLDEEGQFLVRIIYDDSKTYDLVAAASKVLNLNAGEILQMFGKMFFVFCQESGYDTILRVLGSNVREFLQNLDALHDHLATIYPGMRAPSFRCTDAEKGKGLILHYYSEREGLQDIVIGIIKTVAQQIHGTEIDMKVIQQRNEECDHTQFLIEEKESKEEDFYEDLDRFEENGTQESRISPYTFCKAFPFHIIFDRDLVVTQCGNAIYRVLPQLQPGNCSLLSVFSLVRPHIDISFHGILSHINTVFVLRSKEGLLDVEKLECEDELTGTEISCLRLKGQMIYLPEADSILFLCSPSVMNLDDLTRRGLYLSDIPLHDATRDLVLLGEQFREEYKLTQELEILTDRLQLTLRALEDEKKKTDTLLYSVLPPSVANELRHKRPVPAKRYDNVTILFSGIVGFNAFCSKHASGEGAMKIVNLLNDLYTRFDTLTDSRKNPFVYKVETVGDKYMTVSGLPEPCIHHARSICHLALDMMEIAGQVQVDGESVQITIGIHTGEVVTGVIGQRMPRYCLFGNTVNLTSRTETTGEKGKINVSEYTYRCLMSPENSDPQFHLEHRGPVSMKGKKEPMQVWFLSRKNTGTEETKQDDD
# test_description: Cell-based sGC functional assay (CASA assay): cGMP generation in CHO-K1/sGC cells, HTRF detection
# test_parameters: CHO-K1, percent activation relative to standard Compound A in CHO-K1/sGC cells; read-out: % Act.
The following compounds are listed with their measured Emax values.
Write it as a number; the unit % goes unstated.

Answered cases to consult:
Nc1nc(-c2cn3ccnc3c(CCC(F)(F)C(F)(F)F)n2)nc2c1C(c1nnc(C3CC3)o1)(C1CC1)C(=O)N2 (stereo not shown) [Example 56B] ... 89
CC1(c2ccc(Cl)cc2)C(=O)Nc2nc(-c3cn4ccnc4cn3)nc(N3CC(F)(C4CC4)C3)c21 (stereo not shown) [Example 281A] ... 120
Nc1nc(-c2cn3ccnc3c(CCCC(F)(F)F)n2)nc2c1C(c1ncc(C(F)(F)F)cc1Cl)(C1CC1)C(=O)N2 (single isomer, unassigned) [Example 370B] ... 99
CC1(C)C(=O)Nc2nc(-c3cn4ccnc4c(Cc4ccccc4F)n3)nc(N)c21 ... 109
Cc1ccc(C2(C)C(=O)Nc3nc(-c4cn5ccnc5c(CCC(F)(F)F)n4)nc(N)c32)cc1 (stereo not shown) [Example 185A] ... 132
CC1(c2ccc(F)cc2)C(=O)Nc2nc(-c3cn4ccnc4c(CCC(F)(F)C(F)(F)F)n3)nc(N3CCN(S(C)(=O)=O)CC3)c21 (stereo not shown) [Example 299A] ... 114

Kindly consider the entry below.
Exam item: Return Emax for the following compound: CC1(c2ccc(F)c(F)c2)C(=O)Nc2nc(-c3cn4ccnc4c(CCC(F)(F)F)n3)nc(N)c21 (stereo not shown) [Example 183B]
Marked response: 113
